- tested-system: PDGFRβ (Rattus norvegicus (Rat))
- Sequence (Q05030 32-1097): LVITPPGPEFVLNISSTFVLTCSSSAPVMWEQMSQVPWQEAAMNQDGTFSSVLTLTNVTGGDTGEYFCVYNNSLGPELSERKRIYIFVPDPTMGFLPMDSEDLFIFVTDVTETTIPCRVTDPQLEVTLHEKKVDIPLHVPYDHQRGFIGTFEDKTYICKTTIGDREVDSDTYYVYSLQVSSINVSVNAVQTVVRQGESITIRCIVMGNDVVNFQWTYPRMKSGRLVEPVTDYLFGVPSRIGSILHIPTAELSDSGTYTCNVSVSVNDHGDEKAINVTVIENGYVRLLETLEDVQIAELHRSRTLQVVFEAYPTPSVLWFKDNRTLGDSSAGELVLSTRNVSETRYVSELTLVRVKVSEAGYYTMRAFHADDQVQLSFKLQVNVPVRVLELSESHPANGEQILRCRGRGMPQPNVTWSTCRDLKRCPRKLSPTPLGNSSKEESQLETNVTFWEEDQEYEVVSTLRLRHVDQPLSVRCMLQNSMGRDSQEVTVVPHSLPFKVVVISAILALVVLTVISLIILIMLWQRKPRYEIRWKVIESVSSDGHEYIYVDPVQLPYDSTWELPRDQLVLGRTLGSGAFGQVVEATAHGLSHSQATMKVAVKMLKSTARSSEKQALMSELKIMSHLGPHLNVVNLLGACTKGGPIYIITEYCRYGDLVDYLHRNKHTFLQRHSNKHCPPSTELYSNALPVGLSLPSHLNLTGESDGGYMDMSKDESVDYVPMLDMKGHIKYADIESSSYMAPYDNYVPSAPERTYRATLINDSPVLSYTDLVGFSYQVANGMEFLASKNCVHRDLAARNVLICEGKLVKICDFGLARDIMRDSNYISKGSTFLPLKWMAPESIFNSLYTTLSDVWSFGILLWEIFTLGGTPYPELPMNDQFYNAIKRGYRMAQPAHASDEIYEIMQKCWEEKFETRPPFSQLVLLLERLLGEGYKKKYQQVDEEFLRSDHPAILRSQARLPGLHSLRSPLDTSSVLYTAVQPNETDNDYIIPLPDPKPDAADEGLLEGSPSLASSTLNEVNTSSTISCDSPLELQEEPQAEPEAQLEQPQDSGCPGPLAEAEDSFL
- protocol: PDGFRβ Cellular Assay (PDGFRb P-Y751 HTRF in A10 cells stimulated with PDGF-BB)
- Format: cell-based
- details: read-out: PDGFR Cellular IC50
measure-name: log10(IC50) (log10 of the value in nM)
The base-10 logarithm of IC50, taken with IC50 in nM, is what appears here.

INSERT INTO results (compound, measure_name, value_observed) VALUES
  ('COCC1CN(CC(=O)Nc2cnc(C)c(NC(=O)c3cnn4cc(-c5cnn(C)c5)sc34)c2)CC(C)(C)O1 (centres unmarked) [Example 383]', 'log10(IC50)', 1.18),
  ('Cc1ncc(NC(=O)CCN2CCCC2(C)C)cc1NC(=O)c1cnn2cc(-c3cccc4c3cnn4C)sc12 [Example 241]', 'log10(IC50)', 0.43),
  ('COc1ncccc1-c1cn2ncc(C(=O)Nc3cc(C(=O)NCCN4CCCC4)cnc3C)c2s1 [Example 229]', 'log10(IC50)', 1.19),
  ('COCCn1cc(-c2cn3ncc(C(=O)Nc4cc(NC(=O)C5CCN(C(C)C)C5)cnc4C)c3s2)cn1 (centres unmarked) [Example 345]', 'log10(IC50)', 2.35),
  ('COCCn1cc(-c2cn3ncc(C(=O)Nc4cc(NC(=O)CN5CC[C@H](C)C5)cnc4C)c3s2)cn1 (single isomer, unassigned) [Example 328]', 'log10(IC50)', 0.85);

Provide log10(IC50) values for the following items, in order.
1. Cc1ncc(C(=O)NCCN2CCOCC23CCC3)cc1NC(=O)c1cnn2cc(-c3cnn(C)c3)sc12 [Example 117]
2. COc1cc(-c2cn3ncc(C(=O)Nc4cc(NC(=O)CN5CC(C)(C)C5)cnc4C)c3s2)c(OC)nn1 [Example 393]
3. Cc1ncc(NC(=O)CCN2CCC3(CC3)C2)cc1NC(=O)c1cnn2cc(-c3cnn(C)c3)sc12 [Example 104]
4. COc1ncccc1-c1cn2ncc(C(=O)Nc3cc(NC(=O)OCC(C)N4CCCC4)cnc3C)c2s1 (centres unmarked) [Example 255]
5. Cc1ncc(NC(=O)CN2CCCCC23COC3)cc1NC(=O)c1cnn2cc(-c3cnn(C)c3)sc12 [Example 25]
6. Cc1ncc(NC(=O)CN2CC(C)(C)C2)cc1NC(=O)c1cnn2cc(-c3c[nH]c4ccccc34)sc12 [Example 287]
7. COC1(C)CN(CC(=O)Nc2cnc(C)c(NC(=O)c3cnn4cc(-c5cn(C)nc5C)sc34)c2)C1 [Example 442]
8. Cc1ncc(NC(=O)CN2CC(C)(C)C2)cc1NC(=O)c1cnn2cc(-c3ccc(CO)s3)sc12 [Example 278]

1: 0.75; 2: 0.54; 3: 0.96; 4: 0.97; 5: 1.44; 6: 0.26; 7: 0.91; 8: 0.18

Provide log10(IC50) values for the following items, in order.
1. Cc1ncc(NC(=O)CN2CC(C)(C)C2)cc1NC(=O)c1cnn2cc(-c3cnc4[nH]ncc4c3)sc12 [Example 288]
2. COCCn1cc(-c2cn3ncc(C(=O)Nc4cc(NC(=O)CN5CCC56CCC6)cnc4C)c3s2)cn1 [Example 333]

1.13
0.52

* * *

- tested-system: PDGFRβ (Rattus norvegicus (Rat))
- protocol: PDGFRβ Cellular Assay (PDGFRb P-Y751 HTRF in A10 cells stimulated with PDGF-BB)
- Type: cell-based
- details: read-out: PDGFR Cellular IC50
pIC50: −log10 of the molar value.
Each record gets a class by pIC50: lower segment (below 7), middle segment (7 to below 8), upper segment (8 or more)

INSERT INTO results (molecule, qualitative_label) VALUES
  ('COC1CCN(CC(=O)Nc2cnc(C)c(NC(=O)c3cnn4cc(-c5cnn(C)c5)sc34)c2)CC1 [Example 83]', 'middle segment'),
  ('Cc1ncc(C(=O)NCCN2CCCC2)cc1NC(=O)c1cnn2cc(-c3cnn(C)c3C)sc12 [Example 220]', 'middle segment'),
  ('COCCn1cc(-c2cn3ncc(C(=O)Nc4cc(NC(=O)C5CN(C(C)C)C5)cnc4C)c3s2)cn1 [Example 342]', 'lower segment'),
  ('Cc1ncc(NC(=O)CN2CCC(F)(F)C2)cc1NC(=O)c1cnn2cc(-c3cnn(C)c3)sc12 [Example 73]', 'upper segment');

--- query ---
Band for Cc1ncc(NC(=O)CN2CC3(CCOCC3)C2)cc1NC(=O)c1cnn2cc(-c3cnn4c3OCCC4)sc12 [Example 406] ? middle segment

* * *

- tested-system: VEGFR2, unphosphorylated (Homo sapiens (Human))
- Sequence (P35968 20-1356): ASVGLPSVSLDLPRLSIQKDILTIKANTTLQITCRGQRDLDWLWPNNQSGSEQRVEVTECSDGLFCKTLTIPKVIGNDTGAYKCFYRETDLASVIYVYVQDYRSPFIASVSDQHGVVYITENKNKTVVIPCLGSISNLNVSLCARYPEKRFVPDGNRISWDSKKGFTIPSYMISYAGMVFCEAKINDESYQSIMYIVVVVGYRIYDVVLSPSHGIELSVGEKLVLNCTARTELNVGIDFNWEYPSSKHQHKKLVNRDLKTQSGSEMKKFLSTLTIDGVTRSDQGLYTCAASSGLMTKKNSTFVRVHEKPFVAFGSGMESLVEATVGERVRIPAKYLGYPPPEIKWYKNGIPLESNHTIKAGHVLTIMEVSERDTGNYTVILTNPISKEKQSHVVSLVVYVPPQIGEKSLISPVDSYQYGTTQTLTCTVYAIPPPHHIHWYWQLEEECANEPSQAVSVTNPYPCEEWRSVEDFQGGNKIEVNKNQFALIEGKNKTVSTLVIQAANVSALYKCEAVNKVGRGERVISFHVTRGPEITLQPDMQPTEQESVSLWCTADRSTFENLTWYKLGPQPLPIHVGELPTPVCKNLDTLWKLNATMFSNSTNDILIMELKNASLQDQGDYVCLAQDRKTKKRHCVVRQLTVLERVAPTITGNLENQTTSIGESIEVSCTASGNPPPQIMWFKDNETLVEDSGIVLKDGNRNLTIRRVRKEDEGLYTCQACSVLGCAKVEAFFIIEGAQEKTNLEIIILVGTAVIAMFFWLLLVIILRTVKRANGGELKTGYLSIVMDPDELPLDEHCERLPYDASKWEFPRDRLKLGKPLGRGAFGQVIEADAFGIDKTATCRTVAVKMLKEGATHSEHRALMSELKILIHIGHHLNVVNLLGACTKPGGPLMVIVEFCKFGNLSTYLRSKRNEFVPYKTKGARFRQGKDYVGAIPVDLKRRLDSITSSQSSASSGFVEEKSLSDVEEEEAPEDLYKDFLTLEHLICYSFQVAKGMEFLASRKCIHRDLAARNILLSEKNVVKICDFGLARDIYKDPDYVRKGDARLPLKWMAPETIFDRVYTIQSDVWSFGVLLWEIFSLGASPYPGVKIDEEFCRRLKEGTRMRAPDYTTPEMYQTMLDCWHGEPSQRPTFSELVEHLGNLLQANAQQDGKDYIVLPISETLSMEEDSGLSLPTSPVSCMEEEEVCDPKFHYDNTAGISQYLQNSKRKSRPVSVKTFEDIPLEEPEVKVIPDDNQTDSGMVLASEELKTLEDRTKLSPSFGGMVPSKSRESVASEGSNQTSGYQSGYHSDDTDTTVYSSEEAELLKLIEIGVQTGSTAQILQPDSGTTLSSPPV
- protocol: VEGFR ADP GLO Assay
pIC50: −log10 of the molar value.
Please go through the items and note down their pIC50.

INSERT INTO assay_data (mol, tested_system, value_observed) VALUES
  ('Cc1cc(C(=O)NCCN2CCc3ccccc3C2)sc1NC(=O)c1cnn2cc(-c3cnn(C)c3)sc12', 'VEGFR2, unphosphorylated (Homo sapiens (Human))', '< 5.12'),
  ('Cc1ncc(NC(=O)CCN2CCCC2(C)C)cc1NC(=O)c1cnn2cc(-n3ncc4cccnc43)sc12', 'VEGFR2, unphosphorylated (Homo sapiens (Human))', '< 5.12'),
  ('Cc1ncc(C(=O)NCCN2CC3CCC2CC3)cc1NC(=O)c1cnn2cc(-c3cnn(C)c3)sc12', 'VEGFR2, unphosphorylated (Homo sapiens (Human))', '< 5.12'),
  ('Cc1ncc(NC(=O)CN2CC(C)(C)C2)cc1NC(=O)c1cnn2cc(-c3cnn4c3OCCC4)sc12', 'VEGFR2, unphosphorylated (Homo sapiens (Human))', 5.69),
  ('Cc1ncc(C(=O)NCCN2CCCC2(C)C)cc1NC(=O)c1cnn2cc(-c3ccn(C)n3)sc12', 'VEGFR2, unphosphorylated (Homo sapiens (Human))', '< 5.12'),
  ('Cc1ncc(NC(=O)OC[C@@H]2CCCN2C)cc1NC(=O)c1cnn2cc(-c3cc[nH]c3)sc12', 'VEGFR2, unphosphorylated (Homo sapiens (Human))', '< 5.12');

We next turn to a different molecule, shown below.
Entry "Cc1ncc(C(=O)NCCN2CCCC2)cc1NC(=O)c1cnn2cc(-c3c(C)nn(C)c3C)sc12" , pIC50 reported as < 6.08

* * *

- tested-system: Tb-labeled inactive PDGFRβ (Homo sapiens (Human))
- Sequence (P09619 33-1106): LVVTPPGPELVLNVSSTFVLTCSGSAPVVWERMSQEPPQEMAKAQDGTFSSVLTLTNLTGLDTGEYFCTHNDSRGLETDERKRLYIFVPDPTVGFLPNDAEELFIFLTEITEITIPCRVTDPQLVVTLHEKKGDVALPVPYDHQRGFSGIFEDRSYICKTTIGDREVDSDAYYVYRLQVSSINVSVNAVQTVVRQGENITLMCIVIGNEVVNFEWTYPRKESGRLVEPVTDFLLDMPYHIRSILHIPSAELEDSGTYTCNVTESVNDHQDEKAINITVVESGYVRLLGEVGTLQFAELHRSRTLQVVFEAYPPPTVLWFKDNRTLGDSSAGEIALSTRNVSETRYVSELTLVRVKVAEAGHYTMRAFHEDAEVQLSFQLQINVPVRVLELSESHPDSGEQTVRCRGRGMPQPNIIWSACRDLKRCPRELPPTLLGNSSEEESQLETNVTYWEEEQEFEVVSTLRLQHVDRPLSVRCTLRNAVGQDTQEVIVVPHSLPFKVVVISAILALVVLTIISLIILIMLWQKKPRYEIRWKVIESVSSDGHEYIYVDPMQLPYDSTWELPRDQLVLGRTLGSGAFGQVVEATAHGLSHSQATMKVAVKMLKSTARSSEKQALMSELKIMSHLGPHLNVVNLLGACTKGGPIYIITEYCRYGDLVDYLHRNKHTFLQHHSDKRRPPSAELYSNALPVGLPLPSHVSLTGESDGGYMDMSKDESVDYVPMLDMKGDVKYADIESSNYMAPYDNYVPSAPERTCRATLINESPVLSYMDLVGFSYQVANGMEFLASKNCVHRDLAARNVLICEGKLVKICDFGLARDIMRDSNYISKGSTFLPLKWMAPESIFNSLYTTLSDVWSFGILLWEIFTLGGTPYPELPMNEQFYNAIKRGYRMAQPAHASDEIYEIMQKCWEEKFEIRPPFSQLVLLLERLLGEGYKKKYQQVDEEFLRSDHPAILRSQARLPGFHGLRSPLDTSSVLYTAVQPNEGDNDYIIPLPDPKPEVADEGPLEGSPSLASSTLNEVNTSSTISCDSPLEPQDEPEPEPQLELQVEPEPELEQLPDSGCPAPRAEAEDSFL
- protocol: PDGFRβ LanthaScreen Assay
- details: read-out: PDGFR Lantha IC50
Consider the cut-off 10 nM. If the recorded IC50 is strictly smaller, the label is t; if not, the label is f.

INSERT INTO measurements (compound, qualitative_label) VALUES
  ('Cc1ncc(NC(=O)CN2CC(C)(C)C2)cc1NC(=O)c1cnn2cc(-c3cccc4c3cnn4C)sc12 [Example 286]', 't'),
  ('COCCn1cc(-c2cn3ncc(C(=O)Nc4cc(NC(=O)CN5CC(C)(C)C5)cnc4C)c3s2)cn1 [Example 261]', 't');

Criterion: IC50 strictly below 10 nM. Is it met by Cc1ncc(C(=O)NCCN2CCC3(CC3)C2)cc1NC(=O)c1cnn2cc(-c3cn(C)nc3C)sc12 [Example 177] ? t

* * *

- tested-system: His6-TEV-PDGFRβ (557-1016) (Homo sapiens (Human))
- Sequence (P09619 557-1016): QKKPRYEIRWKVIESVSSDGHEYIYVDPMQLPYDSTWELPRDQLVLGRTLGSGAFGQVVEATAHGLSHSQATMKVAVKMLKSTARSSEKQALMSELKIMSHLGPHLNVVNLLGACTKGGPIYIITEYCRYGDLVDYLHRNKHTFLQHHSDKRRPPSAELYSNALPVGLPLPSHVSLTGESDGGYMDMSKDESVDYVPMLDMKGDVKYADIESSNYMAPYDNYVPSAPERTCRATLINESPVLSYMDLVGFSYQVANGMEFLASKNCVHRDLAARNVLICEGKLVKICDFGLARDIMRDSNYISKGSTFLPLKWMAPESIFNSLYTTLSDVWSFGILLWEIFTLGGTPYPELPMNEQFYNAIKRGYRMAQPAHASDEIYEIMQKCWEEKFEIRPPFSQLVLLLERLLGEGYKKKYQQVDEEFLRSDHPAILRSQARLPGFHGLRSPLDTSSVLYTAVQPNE
- protocol: PDGFRβ HTRF Assay
- Type: biochemical
- details: read-out: PDGFR HTRF IC50
measure-name: IC50 (nM)
One number for each entry, in nM.

Solved cases below.
INSERT INTO measurements (compound, tested_system, value_units, value_observed) VALUES
  ('Cc1ncc(NC(=O)CN2CCC3(CC2)COC3)cc1NC(=O)c1cnn2cc(-c3cnn(C)c3)sc12', 'His6-TEV-PDGFRβ (557-1016) (Homo sapiens (Human))', 'nM', 3),
  ('Cc1ncc(NC(=O)CCN2CCCC2(C)C)cc1NC(=O)c1cnn2cc(-c3cccc4c3cnn4C)sc12', 'His6-TEV-PDGFRβ (557-1016) (Homo sapiens (Human))', 'nM', 0.1),
  ('Cc1cc(C(=O)NCCN2CCCC2(C)C)sc1NC(=O)c1cnn2cc(-c3ccncc3)sc12', 'His6-TEV-PDGFRβ (557-1016) (Homo sapiens (Human))', 'nM', 27.7),
  ('Cc1ncc(NC(=O)CN2CCN(C)C(=O)C2)cc1NC(=O)c1cnn2cc(-c3cnn(C)c3)sc12', 'His6-TEV-PDGFRβ (557-1016) (Homo sapiens (Human))', 'nM', 5.7);

Provide IC50 values for the following items, in order.
1. Cc1ncc(C(=O)NCCN2CCCC2(C)C)cc1NC(=O)c1cnn2cc(-c3ccc(=O)[nH]n3)sc12
2. Cc1ncc(NC(=O)CN2CC(C)(C)C2)cc1NC(=O)c1cnn2cc(-c3cccc4c3cnn4C)sc12
3. COCCn1cc(-c2cn3ncc(C(=O)Nc4cc(NC(=O)C5(CN6CCCC6(C)C)CC5)cnc4C)c3s2)cn1
4. Cc1ncc(NC(=O)CN2CCC3(CC3)C2)cc1NC(=O)c1cnn2cc(-c3cnn4c3COCC4)sc12
5. Cc1ncc(C(=O)NCCN2CCC3(CCOC3)C2)cc1NC(=O)c1cnn2cc(-c3cnn(C)c3)sc12 (centres unmarked)

[1.8, 0.1, 7.7, 0.2, 0.5]

Provide IC50 values for the following items, in order.
1. Cc1ncc(C(=O)NCCN2CCCC2(C)C)cc1NC(=O)c1cnn2cc(-n3ncc4cccnc43)sc12
2. COCCn1cc(-c2cn3ncc(C(=O)Nc4cc(NC(=O)[C@@H]5CCCN5C(C)C)cnc4C)c3s2)cn1
3. Cc1ncc(NC(=O)C2CCN(C(C)C)C2)cc1NC(=O)c1cnn2cc(-c3cnn(C)c3C)sc12 (centres unmarked)
4. Cc1ncc(NC(=O)CC(C)N2CCCCC2)cc1NC(=O)c1cnn2cc(-c3cnn(C)c3)sc12 (centres unmarked)

0.4
3.5
0.5
9.7

Provide IC50 values for the following items, in order.
1. Cc1ncc(C(=O)NCCN2CC3CCC2CC3)cc1NC(=O)c1cnn2cc(-c3cnn(C4CC4)c3)sc12
2. Cc1ncc(C(=O)NCCN2CCCC2(C)C)cc1NC(=O)c1cnn2cc(-c3ccn(C)n3)sc12
3. Cc1ncc(NC(=O)CN2CCC3(CCCO3)C2)cc1NC(=O)c1cnn2cc(-c3cnn(C)c3)sc12 (centres unmarked)
4. COc1cccc(-c2cn3ncc(C(=O)Nc4cc(NC(=O)CN5C[C@H](C)O[C@@H](C)C5)cnc4C)c3s2)n1 (relative stereo)
5. Cc1cc(C(=O)NCCN2CCC(CO)CC2)sc1NC(=O)c1cnn2cc(-c3cnn(C)c3)sc12
6. COCCn1cc(-c2cn3ncc(C(=O)Nc4cc(NC(=O)C[C@@H]5CCCN5C(C)C)cnc4C)c3s2)cn1
7. Cc1ncc(C(=O)NCCN2CCCC(F)(F)C2)cc1NC(=O)c1cnn2cc(-c3cnn(C)c3)sc12
8. COc1ncccc1-c1cn2ncc(C(=O)Nc3cc(NC(=O)CN4C[C@H](C)O[C@@H](C)C4)cnc3C)c2s1 (relative stereo) [Example 368]

[0.2, 0.3, 0.7, 0.4, 321, 0.8, 0.3, 0.3]
